SUBJECT_OF_TEST: Ubiquitin-activating enzyme e1, putative (Leishmania donovani (strain BPK282A1)) (UniProt E9BSI1)
Sequence (E9BSI1 as listed by the source): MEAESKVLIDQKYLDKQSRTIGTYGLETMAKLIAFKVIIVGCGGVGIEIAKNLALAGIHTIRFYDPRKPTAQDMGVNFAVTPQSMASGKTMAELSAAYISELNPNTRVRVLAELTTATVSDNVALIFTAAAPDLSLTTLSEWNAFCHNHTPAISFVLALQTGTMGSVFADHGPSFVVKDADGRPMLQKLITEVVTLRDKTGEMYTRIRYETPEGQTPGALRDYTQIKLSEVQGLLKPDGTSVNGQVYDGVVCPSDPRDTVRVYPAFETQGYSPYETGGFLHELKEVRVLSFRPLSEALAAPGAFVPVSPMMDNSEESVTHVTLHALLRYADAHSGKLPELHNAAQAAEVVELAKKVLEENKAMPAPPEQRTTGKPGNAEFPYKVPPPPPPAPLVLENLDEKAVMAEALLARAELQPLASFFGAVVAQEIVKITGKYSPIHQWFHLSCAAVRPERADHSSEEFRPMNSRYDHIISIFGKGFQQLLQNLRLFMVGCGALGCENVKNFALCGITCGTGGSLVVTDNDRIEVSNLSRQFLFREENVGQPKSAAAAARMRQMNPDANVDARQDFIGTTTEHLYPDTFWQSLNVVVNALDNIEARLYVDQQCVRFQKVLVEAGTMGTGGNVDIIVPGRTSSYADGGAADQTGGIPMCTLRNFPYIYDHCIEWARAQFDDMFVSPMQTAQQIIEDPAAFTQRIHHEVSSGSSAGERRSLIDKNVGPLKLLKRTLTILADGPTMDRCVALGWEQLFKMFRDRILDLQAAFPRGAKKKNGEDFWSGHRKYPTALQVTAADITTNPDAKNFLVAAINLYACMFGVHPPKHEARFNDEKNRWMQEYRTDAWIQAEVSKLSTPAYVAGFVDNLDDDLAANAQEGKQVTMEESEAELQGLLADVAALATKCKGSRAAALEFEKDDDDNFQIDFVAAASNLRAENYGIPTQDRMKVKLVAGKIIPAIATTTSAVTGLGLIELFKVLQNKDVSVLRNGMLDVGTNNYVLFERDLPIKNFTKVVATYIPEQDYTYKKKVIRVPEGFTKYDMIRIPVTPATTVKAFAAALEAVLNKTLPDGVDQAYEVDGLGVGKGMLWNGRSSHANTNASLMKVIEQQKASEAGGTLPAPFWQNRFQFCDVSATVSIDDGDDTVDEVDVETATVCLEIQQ
EXPERIMENT_DESCRIPTION: Leishmania donovani Ubiquitin Activating Enzyme (LdE1)
Format: functional
Set-up: scale not given: direction of the effect not stated beside the values
MEASUREMENT_CONDITIONS: 30 µM
Results with a measured potency or affinity are listed apart.
Classification field: true (1) = Percent Effect at or over 10%; false (0) = Percent Effect under 10%.

In plain terms: is recorded Percent Effect at least 10% for Cc1ccc(C2CCCCCN2Cc2cn(C)nc2C)s1 (centres undefined) ?
true (1)

In plain terms: is recorded Percent Effect at least 10% for O=C(c1ccnnc1)N1C[C@H]2CCC[C@@]2(COCC2CCOCC2)C1 ?
false (0)

In plain terms: is recorded Percent Effect at least 10% for CC(O)CN1CCN(C(=O)c2cccc(CC#N)c2)CC1 (centres undefined) ?
true (1)

In plain terms: is recorded Percent Effect at least 10% for CC(NC(=O)NCc1cccc(N2CCCC2=O)c1)c1ccccc1 (centres undefined) ?
false (0)

In plain terms: is recorded Percent Effect at least 10% for COCC1CC2(CCN(C(=O)c3cc(C)oc3C)CC2)CN1C(C)C (centres undefined) ?
false (0)

In plain terms: is recorded Percent Effect at least 10% for Cc1c(C(=O)NC(C)C(C)C)nnn1-c1cccc2c1CCN(C)C2 (centres undefined) ?
true (1)

In plain terms: is recorded Percent Effect at least 10% for Cc1cnn(CC2CCCCN2CCC(=O)Nc2cc(C)on2)c1 (centres undefined) ?
false (0)

In plain terms: is recorded Percent Effect at least 10% for CCCc1nc(CN2CCN(CC(O)c3ccccc3)CC2)no1 (centres undefined) ?
true (1)

In plain terms: is recorded Percent Effect at least 10% for Cc1cccc(-c2nc(CN(Cc3cccs3)CC3CCCO3)no2)c1 (centres undefined) ?
false (0)

In plain terms: is recorded Percent Effect at least 10% for CC(C)C(C(=O)N1CCCN(Cc2nccn2C)CC1)N1CCCC1 (centres undefined) ?
true (1)

In plain terms: is recorded Percent Effect at least 10% for CC(C)CNC(=O)[C@H]1CCS(=O)(=O)[C@@H]2CN(Cc3cccc(Cl)c3)C[C@H]12 ?
false (0)

In plain terms: is recorded Percent Effect at least 10% for COc1ccc(CN2CCC3(CC(=O)N(c4cncnc4)C3)C2)cc1 (centres undefined) ?
true (1)

In plain terms: is recorded Percent Effect at least 10% for Cc1ccccc1-c1cncc(C2CCN(C)CC2)n1 ?
false (0)

In plain terms: is recorded Percent Effect at least 10% for CNC(=O)c1cc2c(nc1N(C)C)CCN(S(=O)(=O)CC(C)C)CC2 ?
false (0)

In plain terms: is recorded Percent Effect at least 10% for Cc1ccc(CNC(=O)CCSCc2csc(C)n2)cn1 ?
true (1)

In plain terms: is recorded Percent Effect at least 10% for CCC(C)(C)NC(=O)Cn1nc(C)nc1-c1cccc(C)c1 ?
true (1)

In plain terms: is recorded Percent Effect at least 10% for COCCn1nc(C(=O)N2CCCC2c2cccc(F)c2)ccc1=O (centres undefined) ?
false (0)

In plain terms: is recorded Percent Effect at least 10% for O=C(c1ccccn1)N1CCc2nc(-c3cnccn3)nc(O)c2C1 ?
true (1)

In plain terms: is recorded Percent Effect at least 10% for CO[C@H]1CN(Cc2cccc(C#N)c2)[C@@H]2COC[C@H]12 ?
false (0)

In plain terms: is recorded Percent Effect at least 10% for CC(NCc1ccc(Cl)o1)c1nnc2n1CCCC2 (centres undefined) ?
true (1)

In plain terms: is recorded Percent Effect at least 10% for COc1ccc(C2CCCN2C(=O)CCNc2ncccn2)cc1 (centres undefined) ?
false (0)

In plain terms: is recorded Percent Effect at least 10% for CNS(=O)(=O)c1ccc(CNC(=O)NCC2CCOC2)cc1 (centres undefined) ?
true (1)

In plain terms: is recorded Percent Effect at least 10% for COc1ncccc1C(=O)NCC1Cc2ccccc2O1 (centres undefined) ?
false (0)

In plain terms: is recorded Percent Effect at least 10% for CC(C)NS(=O)(=O)c1cc(C(=O)O)cc(-c2ccccc2CN(C)C)c1 ?
false (0)

====

SUBJECT_OF_TEST: Protein translocase subunit SecA (Escherichia coli (strain K12)) (UniProt P10408)
Sequence (P10408 whole entry): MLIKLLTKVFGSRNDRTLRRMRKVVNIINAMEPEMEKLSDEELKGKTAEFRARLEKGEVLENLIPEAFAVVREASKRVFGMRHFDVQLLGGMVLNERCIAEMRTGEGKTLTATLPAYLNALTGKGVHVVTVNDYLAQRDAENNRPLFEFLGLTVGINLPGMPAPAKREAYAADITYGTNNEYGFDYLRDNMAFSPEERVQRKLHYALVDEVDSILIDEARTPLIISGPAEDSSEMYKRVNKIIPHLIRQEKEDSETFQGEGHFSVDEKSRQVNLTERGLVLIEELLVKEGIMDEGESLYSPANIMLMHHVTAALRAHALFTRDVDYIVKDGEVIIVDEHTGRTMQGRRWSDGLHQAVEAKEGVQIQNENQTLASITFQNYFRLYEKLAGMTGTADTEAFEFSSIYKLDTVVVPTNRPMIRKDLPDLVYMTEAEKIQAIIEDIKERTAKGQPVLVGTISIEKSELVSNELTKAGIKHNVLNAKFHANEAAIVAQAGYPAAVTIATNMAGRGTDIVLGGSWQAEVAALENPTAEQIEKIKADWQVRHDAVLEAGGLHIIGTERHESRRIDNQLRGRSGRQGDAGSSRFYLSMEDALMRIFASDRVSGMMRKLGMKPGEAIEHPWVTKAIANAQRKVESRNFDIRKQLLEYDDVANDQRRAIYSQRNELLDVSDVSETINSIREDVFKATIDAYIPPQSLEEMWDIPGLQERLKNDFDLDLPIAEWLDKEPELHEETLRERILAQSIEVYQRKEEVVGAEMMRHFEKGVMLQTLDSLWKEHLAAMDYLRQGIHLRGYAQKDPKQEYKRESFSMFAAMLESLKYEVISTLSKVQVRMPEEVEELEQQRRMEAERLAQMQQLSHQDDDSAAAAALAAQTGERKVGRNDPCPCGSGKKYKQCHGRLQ
EXPERIMENT_DESCRIPTION: Assay to Identify E. coli SecA ATPase Inhibitors
Type: functional
Set-up: scale not given: direction of the effect not stated beside the values
MEASUREMENT_CONDITIONS: 30 µM
Entries with a potency or affinity are not part of this list.
ENDPOINT_NAME: Percent Effect (%)
Express the result in % but write the number alone.

Entry COCCc1noc(CN2CCN(CC(O)c3ccccc3)CC2)n1 (stereo unspecified) has what Percent Effect?
-7.76

Entry Cc1cccc(CN2CCc3ncnc(C)c3CC2)n1 has what Percent Effect?
1.12

Entry O=C(Nc1cccc(CN2CCOC2=O)c1)N1CCSCC1 has what Percent Effect?
-1.53

Entry COc1ccc(CN2CCCC(Nc3cccc(F)c3)C2)cc1O (stereo unspecified) has what Percent Effect?
-3.14

Entry CN(C)CC1CSCCCN1C(=O)c1ccc(C(C)(C)C)cc1 (stereo unspecified) has what Percent Effect?
2.6

Entry Cn1nccc1C(=O)N1CCOC(Cc2cccc(C(F)(F)F)c2)C1 (stereo unspecified) has what Percent Effect?
-6

====

Task for the reader: assign each of the following molecules its reported Percent Effect.
SUBJECT_OF_TEST: Proteasome subunit beta (Trypanosoma cruzi) (UniProt O96673)
Sequence (O96673 as listed by the source): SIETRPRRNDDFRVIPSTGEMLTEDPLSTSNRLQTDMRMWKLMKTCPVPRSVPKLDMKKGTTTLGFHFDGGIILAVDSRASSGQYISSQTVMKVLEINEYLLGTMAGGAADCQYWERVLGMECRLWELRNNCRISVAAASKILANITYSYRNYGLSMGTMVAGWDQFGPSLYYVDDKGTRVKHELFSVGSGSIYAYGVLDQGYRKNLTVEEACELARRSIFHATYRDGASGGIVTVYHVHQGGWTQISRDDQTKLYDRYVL
EXPERIMENT_DESCRIPTION: Trypanosoma cruzi proteasome chymotrypsin-like activity (TcProtChymo) assay. Note: in the data most compounds retested in dose-response had high values.
Assay type: functional
Set-up: scale not given: direction of the effect not stated beside the values
MEASUREMENT_CONDITIONS: 9.37 µM
Express the result in % but write the number alone.

Notebook entry, Proteasome subunit beta (Trypanosoma cruzi) (UniProt O96673) assay: Percent Effect of CCOCCN1CCN(Cc2cccc(C(=O)N(C)C)c2)CC1 = ?
0

Notebook entry, Proteasome subunit beta (Trypanosoma cruzi) (UniProt O96673) assay: Percent Effect of O=C1CCCc2cc(-c3csc(CCN4CCOC4=O)n3)ccc2N1 = ?
18.1

Notebook entry, Proteasome subunit beta (Trypanosoma cruzi) (UniProt O96673) assay: Percent Effect of CCc1nc(C2CCCN2Cc2nccn2Cc2ccccc2)no1 (centres undefined) = ?
9.13

Notebook entry, Proteasome subunit beta (Trypanosoma cruzi) (UniProt O96673) assay: Percent Effect of CSCc1cccc(S(=O)(=O)N2CCC(C)CC2)c1 = ?
7.39

Notebook entry, Proteasome subunit beta (Trypanosoma cruzi) (UniProt O96673) assay: Percent Effect of Cc1cc2c(=O)n3c(nc2s1)CCN(C(=O)c1cnn(C)c1C)CC3 = ?
9.83

Notebook entry, Proteasome subunit beta (Trypanosoma cruzi) (UniProt O96673) assay: Percent Effect of CNC(=O)CSc1cnn(CC(=O)Nc2cccc(Cl)c2C)c(=O)c1Cl = ?
17.6

Notebook entry, Proteasome subunit beta (Trypanosoma cruzi) (UniProt O96673) assay: Percent Effect of CCOc1ccc(N2CCCN=C2NC(=O)c2ccccc2C)cc1 = ?
9.98

Notebook entry, Proteasome subunit beta (Trypanosoma cruzi) (UniProt O96673) assay: Percent Effect of O=C1CC(c2cccs2)c2cnn(C3CCCC3)c2N1 (centres undefined) = ?
6.97

Notebook entry, Proteasome subunit beta (Trypanosoma cruzi) (UniProt O96673) assay: Percent Effect of Cc1cnn(CC(C)NCc2csc(-c3ccsc3)n2)c1 (centres undefined) = ?
28.1

Notebook entry, Proteasome subunit beta (Trypanosoma cruzi) (UniProt O96673) assay: Percent Effect of CCOCCCn1c(NC(=O)c2cnn(C)c2)nc2ccccc21 = ?
2.37

Notebook entry, Proteasome subunit beta (Trypanosoma cruzi) (UniProt O96673) assay: Percent Effect of Cc1ccccc1CS(=O)(=O)NCCCN1CCCCC1 = ?
6.63

Notebook entry, Proteasome subunit beta (Trypanosoma cruzi) (UniProt O96673) assay: Percent Effect of CCCc1n[nH]c(C2CN(CCNS(=O)(=O)CC)CCO2)n1 (centres undefined) = ?
12.9

Notebook entry, Proteasome subunit beta (Trypanosoma cruzi) (UniProt O96673) assay: Percent Effect of CNC(=O)c1ccc(OC2CCN(S(C)(=O)=O)CC2)c(Cl)c1 = ?
14.7

Notebook entry, Proteasome subunit beta (Trypanosoma cruzi) (UniProt O96673) assay: Percent Effect of CCOCCCC(=O)NCCC(=O)N1CCN(c2ccccn2)CC1 = ?
13.3

Notebook entry, Proteasome subunit beta (Trypanosoma cruzi) (UniProt O96673) assay: Percent Effect of NC(=O)C1CCCN(C(=O)c2cnc3c(cnn3C3CCCC3)c2)C1 (centres undefined) = ?
3.19

Notebook entry, Proteasome subunit beta (Trypanosoma cruzi) (UniProt O96673) assay: Percent Effect of Cc1nc(C)n(CC2CCCCN2CCS(C)(=O)=O)n1 (centres undefined) = ?
11.7

Notebook entry, Proteasome subunit beta (Trypanosoma cruzi) (UniProt O96673) assay: Percent Effect of CC(C)c1nn(C)c(N2CCOCC2)c1CNC(C)c1cccs1 (centres undefined) = ?
1.44

Notebook entry, Proteasome subunit beta (Trypanosoma cruzi) (UniProt O96673) assay: Percent Effect of Cn1cc(C(=O)Nc2ccc3c(c2)CN(C(=O)c2ccco2)CC3)nn1 = ?
7.66

Notebook entry, Proteasome subunit beta (Trypanosoma cruzi) (UniProt O96673) assay: Percent Effect of NC(=O)C1CCN(CCc2ccc(NC(=O)C3CCC3)cc2)CC1 = ?
2.87

Notebook entry, Proteasome subunit beta (Trypanosoma cruzi) (UniProt O96673) assay: Percent Effect of O=C(c1ccc[nH]1)N1C[C@H]2CC[C@@H]1CN(C1Cc3ccccc3C1)C2 = ?
10.7

Notebook entry, Proteasome subunit beta (Trypanosoma cruzi) (UniProt O96673) assay: Percent Effect of CCC(=O)Nc1nnc(CCOc2cccc(OC)c2)s1 = ?
9.43

Notebook entry, Proteasome subunit beta (Trypanosoma cruzi) (UniProt O96673) assay: Percent Effect of CS(=O)(=O)CCSc1cccc(C#N)c1 = ?
7.72

Notebook entry, Proteasome subunit beta (Trypanosoma cruzi) (UniProt O96673) assay: Percent Effect of O=C(Cc1ccccc1F)N1CCN(C(=O)c2ccoc2)CC1 = ?
22.5

Notebook entry, Proteasome subunit beta (Trypanosoma cruzi) (UniProt O96673) assay: Percent Effect of Cc1cnnn1Cc1ncn2c1CN(Cc1cccs1)CCC2 = ?
15.3
